- TARGET OR SYSTEM: T1, Human CXCR2 (human, UniProt P25025 1-360)
- T1 sequence: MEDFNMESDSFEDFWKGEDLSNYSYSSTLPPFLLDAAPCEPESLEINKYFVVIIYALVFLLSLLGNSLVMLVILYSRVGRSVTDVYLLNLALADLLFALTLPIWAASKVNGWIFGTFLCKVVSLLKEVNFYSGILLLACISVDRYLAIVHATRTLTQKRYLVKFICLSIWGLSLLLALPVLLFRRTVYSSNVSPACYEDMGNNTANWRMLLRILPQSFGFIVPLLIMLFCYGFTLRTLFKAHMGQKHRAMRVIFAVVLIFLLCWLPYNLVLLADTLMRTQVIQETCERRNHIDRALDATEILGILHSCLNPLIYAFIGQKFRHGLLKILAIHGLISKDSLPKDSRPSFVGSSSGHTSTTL
- PROTOCOL DETAILS: cell-based or functional assay
MEASUREMENT NAME: [35S]GTPγS accumulation IC50, IL-8

Looking up CXCR20031 (bispecific antibody, not shown: small tags and cut ends) EVQLVESGGELVQPGGSLRLSCAASGSILTINAMGWYRQAPGKQRELVVRRTRGGSTTYQDSVKGRFTISADIAKKTMYLQMNSLKPEDTAVYYCMLDDRGGVYWGQGTQVTVSSGGGGSGGGGSGGGGSGGGGSGGGGSGGGGSGGGGSEVQLVESGGGLVQPGGSLRLSCVASGRIFSSNAMGWFRQAPGKEREFVAAITWRSGGSAYYADSAKGRFTISRDNAKNTVYLQMNSLKPEDTAVYYCAAGGSSWLSFPPDYWGQGTQVTVSS , I found its [35S]GTPγS accumulation IC50, IL-8 recorded as 0.84 nM
